The measured values listed here are drawn from the nanobody polyreactivity screen of Harvey et al. (2022).

- assayComment: yeast display, Sf9 membrane polyspecificity reagent, FACS + sequencing; frameworks hold sequencing errors
readoutName: polyreactivity (PSR sort gate)

# example entries with known answers
QVQLVESGGGLVQAGGSLRLSCAASGRIFPYYAMGWYRQAPGKERELVASIRYSAGNTYYADSVKGRFTISRDNAKNTVYLQMNSLKPEDTAVYYCAKLYRSYTIRPVWGRYDYWGQGTQVTVSS | low polyreactivity
QVQLVESGGGLVQAGGSLRLSCAASGSIFYSYAMGWYRQAPGKEREFVATITWSGGRTYYADSVKGRFTISRDNAKNTFYLQMNSLKPEDTAVYYCNKRLFPYKGDYWGQGTQVTVSS | low polyreactivity
QVQLVESGGGLVQAGGSLRLSCAASGITFTDNTMGWYRQAPGKERELVAAISRSGTSTYYADSVKGRFTISRDNAKNTVYLQMNSLKPEDTAVYYCAALSYVPSPYYYWGQGTQVTVSS | high polyreactivity
QVQLVESGGGLVQAGGSLRLSCAASGFILNKNVMGWYRQAPGKERELVAAITGSGGRTYYADSVKGRFSISRDNAKNTVYLQMNSLKPEDTAVYYCAARRPLVRYIMGYWGQGTQVTVSS | high polyreactivity

# context switch: different sequence, same polyreactivity (PSR sort gate)
Briefly, polyreactivity (PSR sort gate) measured for QVQLVESGGGLVQAGGSLRLSCAASGRIISAYAMGWYRQAPGKERELVAAITGSGGSTYYADTVKGRFTISRDNAKKTVYLQMNSRKPEDTAVYYCAAKIDYPDARYFPYRYYYWGQGTQVTVSS : high polyreactivity
